Experiment summary: PK studies in beagle dogs
Format: in vivo
Experimental setup: male, beagle, dog, plasma, po, 2 mg/kg, beagle dogs, 2 mg/kg single oral dose; read-out: Vz/F
Assay metric: Vd/F

Asked: Requested field: Vd/F. Item: `CNCC[C@H](Oc1cccc2c1OCO2)c1cccs1`
Given back: 24.9 L/kg

---

Experiment summary: PK studies in beagle dogs
Assay type: in vivo
Experimental setup: male, beagle, dog, plasma, po, 12.5 mg/kg, beagle dogs, 12.5 mg/kg single oral dose; read-out: Vz/F
Assay metric: Vd/F (L/kg)
Return type: number; implicit unit L/kg.

Asked: Requested field: Vd/F. Item: `CNCC[C@H](Oc1cccc2c1OCO2)c1cccs1`
Given back: 13.9

---

Experiment summary: Hepatic microsome stability assay, DLM
Type: in vitro ADME, dog
Experimental setup: beagle, dog, liver microsomes, pH 7.4; 1 μmol/L, 0.2 g/L microsomes, NADPH
Assay metric: half-life at 1 μmol/L (h)
Return type: number; implicit unit h.

Asked: Requested field: half-life at 1 μmol/L. Item: CNCC[C@H](Oc1cccc2c1OCO2)c1cccs1 [ammoxetine]
Given back: 2.31

---

Experiment summary: PK studies in beagle dogs
Format: in vivo
Experimental setup: beagle, dog, plasma, po, 5 mg/kg, beagle dogs, 5 mg/kg oral every 12 h, last time of multiple administrations; read-out: MRT(0-∞)
Protocol: For the PK studies in rats and dogs, a total of 18 SD rats and 15 male beagle dogs were randomly divided into three groups, with six rats or five dogs per group, respectively. […] To determine the concentration of ammoxetine, 100 μL of L-phencynonate (IS, 50 ng/mL) and 300 μL of methanol were added to 100 μL of plasma samples from rats or dogs. […] F was calculated using the formula: F=AUCp.o./AUCi.v.×100% . […]
Assay metric: MRT inf (h)
Return type: number; implicit unit h.

Asked: Requested field: MRT inf. Item: CNCC[C@H](Oc1cccc2c1OCO2)c1cccs1 [ammoxetine]
Given back: 6.21

---

Experiment summary: PK study in rats
Format: in vivo, SD rats
Experimental setup: SD, rat, plasma, 8 mg/kg single oral dose, read-out: CLz/F (converted)
Assay metric: CL/F (mL/min/kg)
Return type: number; implicit unit mL/min/kg.

Asked: Requested field: CL/F. Item: `CNCC[C@H](Oc1cccc2c1OCO2)c1cccs1`
Given back: 100

---

Experiment summary: PK studies in beagle dogs
Format: in vivo
Experimental setup: female, beagle, dog, plasma, po, 5 mg/kg, female beagle dogs, 5 mg/kg oral, fasted
Assay metric: Cmax (ng/mL)
Return type: number; implicit unit ng/mL.

Asked: Requested field: Cmax. Item: CNCC[C@H](Oc1cccc2c1OCO2)c1cccs1 [ammoxetine]
Given back: 476

---

Experiment summary: Bidirectional permeability measurements in MDCK-MDR1 monolayers
Assay type: in vitro ADME, canine
Experimental setup: dog, MDCK-MDR1; 0.2 μg/mL, 2 h
Assay metric: Papp B→A at 2 h, 0.2 μg/mL (×10⁻⁶ cm/s)
Return type: number; implicit unit ×10⁻⁶ cm/s.

Asked: Requested field: Papp B→A at 2 h, 0.2 μg/mL. Item: `CNCC[C@H](Oc1cccc2c1OCO2)c1cccs1`
Given back: 26.5

---

Experiment summary: PK studies in beagle dogs
Format: in vivo
Experimental setup: male, beagle, dog, plasma, po, 5 mg/kg, beagle dogs, 5 mg/kg oral, fed (nonfasting)
Assay metric: Cmax (ng/mL)
Return type: number; implicit unit ng/mL.

Asked: Requested field: Cmax. Item: `CNCC[C@H](Oc1cccc2c1OCO2)c1cccs1`
Given back: 522

---

Experiment summary: PK studies in beagle dogs
Type: in vivo
Experimental setup: male, beagle, dog, plasma, po, 5 mg/kg, male beagle dogs, 5 mg/kg single oral dose, fasted (first dose); read-out: Vz/F
Assay metric: Vd/F (L/kg)
Return type: number; implicit unit L/kg.

Asked: Requested field: Vd/F. Item: `CNCC[C@H](Oc1cccc2c1OCO2)c1cccs1`
Given back: 14.9

---

Assayed system: CYP 2A6 (Homo sapiens, UniProt P11509)
Construct: 0.5 mg/mL HLM, 1 mmol/L NADPH, and a cocktail of 10 probe substrates for 9 CYP isoforms; tissue BD (Woburn, USA)
Sequence (P11509 whole entry, canonical isoform): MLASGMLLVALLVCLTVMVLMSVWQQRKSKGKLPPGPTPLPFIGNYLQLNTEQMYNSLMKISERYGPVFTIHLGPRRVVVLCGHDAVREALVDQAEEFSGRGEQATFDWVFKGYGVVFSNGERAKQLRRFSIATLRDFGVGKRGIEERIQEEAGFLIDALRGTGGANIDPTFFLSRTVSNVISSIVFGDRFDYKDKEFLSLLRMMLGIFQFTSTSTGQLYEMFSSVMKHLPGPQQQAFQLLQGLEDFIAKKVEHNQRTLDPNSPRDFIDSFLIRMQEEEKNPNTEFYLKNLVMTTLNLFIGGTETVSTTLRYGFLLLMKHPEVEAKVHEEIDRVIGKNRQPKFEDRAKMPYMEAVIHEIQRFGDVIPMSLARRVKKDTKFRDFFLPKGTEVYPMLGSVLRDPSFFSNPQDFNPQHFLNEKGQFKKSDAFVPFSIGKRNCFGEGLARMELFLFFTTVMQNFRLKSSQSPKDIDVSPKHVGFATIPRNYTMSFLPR
Experiment summary: CYP inhibition, cocktail-substrate method in HLM
Experimental setup: probe coumarin
pIC50: −log10 of the molar value.
Assay metric: pIC50

Asked: Requested field: pIC50. Item: `CNCC[C@H](Oc1cccc2c1OCO2)c1cccs1`
Given back: < 4.00

---

Experiment summary: PK studies in beagle dogs
Format: in vivo
Experimental setup: male, beagle, dog, plasma, po, 2 mg/kg, beagle dogs, 2 mg/kg single oral dose; read-out: t1/2z (converted)
Assay metric: half-life (h)
Return type: number; implicit unit h.

Asked: Requested field: half-life. Item: CNCC[C@H](Oc1cccc2c1OCO2)c1cccs1 [ammoxetine]
Given back: 3.4

---

Experiment summary: PK studies in beagle dogs
Type: in vivo
Experimental setup: male, beagle, dog, plasma, po, 5 mg/kg, male beagle dogs, 5 mg/kg single oral dose, fasted (first dose)
Assay metric: AUC(0-inf) (ng·h/mL)
Return type: number; implicit unit ng·h/mL.

Asked: Requested field: AUC(0-inf). Item: `CNCC[C@H](Oc1cccc2c1OCO2)c1cccs1`
Given back: 1980

---

Experiment summary: PK studies in beagle dogs
Type: in vivo
Experimental setup: male, beagle, dog, plasma, po, 12.5 mg/kg, beagle dogs, 12.5 mg/kg single oral dose; read-out: t1/2z (converted)
Assay metric: half-life (h)
Return type: number; implicit unit h.

Asked: Requested field: half-life. Item: `CNCC[C@H](Oc1cccc2c1OCO2)c1cccs1`
Given back: 6.2

---

Experiment summary: PK studies in beagle dogs
Assay type: in vivo
Experimental setup: male, beagle, dog, plasma, po, 5 mg/kg, beagle dogs, 5 mg/kg oral, fed (nonfasting); read-out: Vz/F
Assay metric: Vd/F (L/kg)
Return type: number; implicit unit L/kg.

Asked: Requested field: Vd/F. Item: CNCC[C@H](Oc1cccc2c1OCO2)c1cccs1 [ammoxetine]
Given back: 14

---

Experiment summary: PK studies in beagle dogs
Format: in vivo
Experimental setup: male, dog, plasma; beagle dogs, 2 mg/kg intravenous administration; total clearance; read-out: CLz (converted)
Assay metric: clearance (mL/min/kg)
Return type: number; implicit unit mL/min/kg.

Asked: Requested field: clearance. Item: `CNCC[C@H](Oc1cccc2c1OCO2)c1cccs1`
Given back: 34

---

Experiment summary: PK studies in beagle dogs
Type: in vivo
Experimental setup: beagle, dog, plasma, po, 5 mg/kg, beagle dogs, 5 mg/kg oral every 12 h, last time of multiple administrations; read-out: Tmax
Assay metric: Tmax (h)
Return type: number; implicit unit h.

Asked: Requested field: Tmax. Item: `CNCC[C@H](Oc1cccc2c1OCO2)c1cccs1`
Given back: 1.1

---

Experiment summary: PPB assay by ultrafiltration, rat plasma
Assay type: in vitro ADME, rats
Experimental setup: 450 ng/mL, read-out: Percentage of ammoxetine-protein binding rate (%) (converted)
Method: The PPB of ammoxetine was determined using the ultrafiltration method. Triplicate samples of rat, dog, or human plasma were spiked with ammoxetine at three final concentrations (50, 150, and 450 ng/mL). The spiked plasma samples were then incubated in a 37°C air-bath shaker for 1 h until equilibrium was reached. After incubation, 400 μL of the plasma samples were transferred to pre-saturated ultrafiltration devices. […] The PPB rate (%) of ammoxetine was calculated by dividing (C t −C f ) by C t .
Assay metric: fraction unbound at 1 h, 450 ng/mL
The reply should be a number, written without any unit.

Asked: Requested field: fraction unbound at 1 h, 450 ng/mL. Item: `CNCC[C@H](Oc1cccc2c1OCO2)c1cccs1`
Given back: 0.506

---

Experiment summary: PK studies in beagle dogs
Type: in vivo
Experimental setup: male, beagle, dog, plasma, po, 12.5 mg/kg, beagle dogs, 12.5 mg/kg single oral dose; read-out: CLz/F (converted)
Assay metric: CL/F (mL/min/kg)
Return type: number; implicit unit mL/min/kg.

Asked: Requested field: CL/F. Item: `CNCC[C@H](Oc1cccc2c1OCO2)c1cccs1`
Given back: 25.8

---

Experiment summary: PPB assay by ultrafiltration, rat plasma
Format: in vitro ADME, rats
Experimental setup: approximate range over 50-450 ng/mL, read-out: PPB rate
Assay metric: fraction unbound at 1 h

Asked: Requested field: fraction unbound at 1 h. Item: CNCC[C@H](Oc1cccc2c1OCO2)c1cccs1 [ammoxetine]
Given back: 0.4 to 0.5

---

Experiment summary: PK studies in beagle dogs
Type: in vivo
Experimental setup: male, beagle, dog, plasma, po, 5 mg/kg, beagle dogs, 5 mg/kg oral, fed (nonfasting); read-out: t1/2z (converted)
Assay metric: half-life

Asked: Requested field: half-life. Item: `CNCC[C@H](Oc1cccc2c1OCO2)c1cccs1`
Given back: 3.28 h

---

Experiment summary: PK study in rats
Type: in vivo, SD rats
Experimental setup: SD, rat, plasma, 20 mg/kg single oral dose, read-out: MRT(0-∞)
Assay metric: MRT inf
Write the numeric value and follow it with the unit.

Asked: Requested field: MRT inf. Item: `CNCC[C@H](Oc1cccc2c1OCO2)c1cccs1`
Given back: 8.57 h
